# study.system: EPHA2 (Homo sapiens)
# Sequence (P29317 24-976): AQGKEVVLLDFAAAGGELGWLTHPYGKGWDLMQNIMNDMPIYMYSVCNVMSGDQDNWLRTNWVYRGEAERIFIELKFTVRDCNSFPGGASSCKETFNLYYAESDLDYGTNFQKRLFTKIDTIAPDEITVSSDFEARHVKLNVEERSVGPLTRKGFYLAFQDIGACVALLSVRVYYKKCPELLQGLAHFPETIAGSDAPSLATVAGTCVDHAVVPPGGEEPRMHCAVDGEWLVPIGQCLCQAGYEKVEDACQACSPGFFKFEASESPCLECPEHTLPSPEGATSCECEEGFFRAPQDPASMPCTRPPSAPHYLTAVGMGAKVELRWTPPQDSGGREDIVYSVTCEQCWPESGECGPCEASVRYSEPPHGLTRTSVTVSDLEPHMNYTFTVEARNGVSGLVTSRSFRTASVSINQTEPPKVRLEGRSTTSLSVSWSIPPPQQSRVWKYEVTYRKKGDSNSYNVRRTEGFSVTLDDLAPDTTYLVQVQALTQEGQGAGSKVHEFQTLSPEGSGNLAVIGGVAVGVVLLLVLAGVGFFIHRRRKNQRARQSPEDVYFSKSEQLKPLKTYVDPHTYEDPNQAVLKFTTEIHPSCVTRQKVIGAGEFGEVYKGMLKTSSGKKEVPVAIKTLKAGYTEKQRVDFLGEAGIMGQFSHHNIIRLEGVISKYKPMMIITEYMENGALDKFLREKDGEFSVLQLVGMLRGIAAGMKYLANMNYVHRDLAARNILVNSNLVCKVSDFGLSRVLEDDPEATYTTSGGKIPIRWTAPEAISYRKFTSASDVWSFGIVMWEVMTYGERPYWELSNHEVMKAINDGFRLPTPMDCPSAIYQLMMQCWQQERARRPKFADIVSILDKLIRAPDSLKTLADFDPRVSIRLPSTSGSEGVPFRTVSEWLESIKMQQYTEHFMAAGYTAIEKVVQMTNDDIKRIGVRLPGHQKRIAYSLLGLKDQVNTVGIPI
pKi: −log10 of the molar value.
Assign class by pKi: not lower than 7 means Fulfilled; lower than 7 means Not fulfilled.

Record excerpt, results attached:
CN[C@@H]1CCCN(c2cc(-c3c(C)cccc3F)cc3cnc(N)cc23)C1; Not fulfilled
Cc1cccc(F)c1-c1cc(OC2CN(C)C2)c2cc(N)ncc2c1; Not fulfilled
Cc1cccc(F)c1-c1cc(C2CCN(C)CC2)c2cc(N)ncc2c1; Not fulfilled
Cc1cccc(F)c1-c1cc(N2CCC[C@H](N(C)C)C2)c2cc(N)ncc2c1; Not fulfilled

Ask | Has `Cc1cccc(F)c1-c1cc(NC2CCNCC2)c2cc(N)ncc2c1F` a recorded pKi greater than or equal to 7?
Reply | Not fulfilled

Ask | Is pKi at least 7? Consider `Cc1cccc(F)c1-c1cc(N[C@H]2CCCCNC2)c2cc(N)ncc2c1`
Reply | Fulfilled

Ask | Would you say `Cc1cccc(F)c1-c1cc(C(=O)NC2CCNCC2)c2cc(N)ncc2c1` shows pKi at minimum 7?
Reply | Fulfilled

Ask | Could you please find out whether `Cc1cccc(F)c1-c1cc(N2CC[C@@H](O)C2)c2cc(N)ncc2c1` has pKi that meets 7 or exceeds it?
Reply | Not fulfilled

Ask | Record `Cc1cccc(F)c1-c1cc(OC2CNC2)c2cc(N)ncc2c1` ; criterion: pKi no lower than 7. Met?
Reply | Not fulfilled

Ask | Is pKi for `Cc1cccc(F)c1-c1cc(NC[C@@H]2CCCCN2)c2cc(N)ncc2c1` at or above 7?
Reply | Fulfilled

Ask | Assess whether reported pKi for `Cc1cccc(Cl)c1-c1ccc2c(C(=O)N[C@@H]3CCNC3)c(N)ncc2c1` sits at 7 or higher.
Reply | Not fulfilled

Ask | Check the entry `CN[C@H]1CCN(c2cc(-c3c(C)cccc3F)cc3cnc(N)cc23)C1` : does pKi equal or exceed 7?
Reply | Not fulfilled

Ask | Assess whether reported pKi for `CCN1CCC(Nc2cc(-c3c(C)cccc3Cl)cc3cnc(N)nc23)CC1` sits at 7 or higher.
Reply | Fulfilled

Ask | Textbook exercise: given the entry `Cc1cccc(F)c1-c1cc(N[C@@H]2CCCN(C)C2)c2cc(N)ncc2c1` , state whether its pKi is greater than or equal to 7.
Reply | Not fulfilled
